Test system: HL-60
Assay: Growth inhibition of human HL60 cells after 48 hrs by MTT assay
Assay type: functional, cell-based
Details: HL-60, 48 h
Give IC50 for every item shown.
Numbers only here, please. The scale is nM.

Task: Checklist item: IC50 tested on HL-60, entry O=C(Nc1nc2ccc([N+](=O)[O-])cc2s1)c1cccnc1Nc1ccc(F)cc1 , value?
Output: 300

Task: And for O=C(Nc1nc2ccc([N+](=O)[O-])cc2s1)c1cccnc1Nc1ccccc1 ?
Output: 580

Task: And for O=C(Nc1nc2ccc([N+](=O)[O-])cc2s1)c1cccnc1Nc1cc(F)c(F)c(F)c1 ?
Output: 80

Task: And for CN1c2ccccc2S(=O)(=O)n2nc(-c3cccnc3Nc3ccc(Cl)cc3Cl)nc21 ?
Output: 640

Task: And for COc1ccc(Nc2ncccc2C(=O)Nc2nc3ccc([N+](=O)[O-])cc3s2)cc1 ?
Output: 700

Task: And for O=C(Nc1nc2ccc([N+](=O)[O-])cc2s1)c1cccnc1Nc1ccc(Cl)cc1 ?
Output: 400
